Data credit: patent US4699924A

- Tested on: guinea pig foot pad stratum corneum
- assayProcedure: Increase in extensibility of guinea pig foot pad stratum corneum
- Parameters: unit not given here
- conditionContext: 0.2 M 2-hydroxyoctanoic acid + additive at 5% w/w; 3 hours at 20° C.; relative humidity 65%
Criterion: Increase in stratum corneum extensibility strictly under 20. Met: yes. Not met: no.

CCCCCCC(O)C(=O)O (centres unmarked) [2-hydroxyoctanoic acid]; yes
OCC(O)CO [Propan-1,2,3-triol]; yes

Does the reported Increase in stratum corneum extensibility of CC(O)COCC(C)O (centres unmarked) [Di(2-hydroxypropyl) ether] stay below 20?
no

Does the reported Increase in stratum corneum extensibility of CC(O)CO (centres unmarked) [Propan-1,2-diol] stay below 20?
yes
